Test system: U251 CNS
Assay: NCI-60 one-dose screen, 48 h
Settings: 10 µM unless noted
Protocol: Growth inhibition of the U251 human tumor cell line is measured as a screen for anti-cancer activity. Cells are grown in 96 well plates and exposed to the test compound for 48 hours. Compounds are tested at a single concentration, which is 10^-5 M for most compounds. The reported endpoint is percent growth (GI% or GIPRCNT), where numbers from 0 - 100% represent growth inhibition, and numbers from -100% - 0 represent cell death. For example, a value of 40 represents 60% growth inhibition. […]
The panel holds about 83,000 compounds, 20% with a hit somewhere; the sample as a whole holds those more often. Activity calls are given as the source filed them. How the source made its calls: active means growth percent below 10; inactive means the rest.
Classes used: active, inactive

• Cc1ccc(C(=Nc2ccccc2)N=P(c2ccccc2)(c2ccccc2)c2ccccc2)cc1 = active
• CNc1ccc2c(c1)c1ccccc1n2C = inactive
• CC1OC2CC(=O)OC2C2=C1C(=O)c1c(O)cccc1C2=O (configuration not stated) = active
• CCCCCCCCCCCCCCCCN(CC)CC = active
• N#CSCC(=O)c1ccc(Cl)cc1 = inactive
• CC1(C)CC([P+](c2ccccc2)(c2ccccc2)c2ccccc2)=NN1 = inactive
• O=C(Nc1ccc(F)cc1)ON=C1CCCCC1 = inactive
• O=C(CC1(O)C(=O)Nc2c(Cl)ccc(Cl)c21)c1ccc(Cl)cc1Cl (configuration not stated) = inactive
• O=C(Nc1c(Cl)cccc1Cl)Oc1cccc2cccnc12 = inactive
• CCC1OC(OC)C=CC1=O (configuration not stated) = inactive
• O=C(Nc1cccc(Br)c1)Oc1ccc(Cl)c2cccnc12 = inactive
• CCC(=O)Sc1ccccc1C(=O)Nc1ccc(Cl)cc1 = inactive
• CN(C)c1ccc(C(=C2C=CC(=[N+](C)C)C=C2)c2ccc(N(C)C)cc2)cc1 (tested in a mixture with another compound) = active
• CN(C)C(=O)c1ccc(SC(=S)NCc2ccccc2)cc1 = inactive
• CCCCCCC(C)c1ccccc1O (configuration not stated) (tested in a mixture with another compound) = inactive
• N#CC1C(=O)SC2c3ccccc3C(=O)c3ccccc3C12 (configuration not stated) = inactive
• Cc1ccnc(NC(c2ccccc2)c2ccc3cccnc3c2O)c1 (configuration not stated) = inactive

====

test system: SK-MEL-5 melanoma; assay: NCI-60 one-dose screen, 48 h (100 = growth as untreated, 0 = no growth, -100 = all killed); conditions: 10 µM unless noted
This is part of a sample that, as a whole, favours compounds with a hit. Of some 83,000 tested, about 20% had one in any assay.
RECORDED_ENDPOINT: growth (%)

- O=C1c2ccccc2C(=O)c2sc(Nc3cccc(Cl)c3)nc21: -82.6
- O=C(O)c1ccc2c3c(ncnc13)-c1ccccc1C2=O: -69.3
- C[N+](C)=c1ccc2nc3c(cc(NCCCNc4cc5oc6cc(=[N+](C)C)ccc-6nc5c5ccccc45)c4ccccc43)oc-2c1: -96.3
- CCOc1ccc(-c2nc3ccc(-c4nc5ccc(N6CCN(C)CC6)cc5[nH]4)cc3[nH]2)cc1: -96.7
- COc1ccccc1/C=C\C(=O)c1ccccc1: 72.3
- Oc1ccc(/C=N/NC(=S)Nc2ccccc2)nc1: -45.3
- CC(=Nc1ccc(N(C)C)cc1)c1ccccc1: 54.6
- CN(C)c1ccc(N=Nc2cccc3ccccc23)cc1: 93.9
- S=C(N/N=C/c1ccccn1)Nc1ccccn1: -22.2
- CCOC(=O)c1c(C)[nH]c(CO)c1C: 99.1
- CC(C)c1ccc2nc3ccc(C(=O)NCCN4CCN(c5ccccc5)CC4)cn3c(=O)c2c1: -25.3

====

# growth annotations
system: HCC-2998 colon; test: NCI-60 one-dose screen, 48 h (100 = growth as untreated, 0 = no growth, -100 = all killed); conditions: 10 µM unless noted
The panel holds about 83,000 compounds, 20% with a hit somewhere; the sample as a whole holds those more often.
RECORDED_ENDPOINT: growth (%)

* CCC(=O)Sc1ccccc1C(=O)Nc1ccc(Cl)cc1 | 85.7
* O=C1N[C@H]2[C@H](CS[C@H]2CCCCC(=O)N(CCP(c2ccccc2)c2ccccc2)CCP(c2ccccc2)c2ccccc2)N1 | 88.9
* Cc1cc(N)c2ccccc2[n+]1CCCCCCCCCC[n+]1c(C)cc(N)c2ccccc21 | 0.513
* CNc1ccc(N)cc1 | 100
* S=C(N/N=C/c1ccccn1)Nc1ccccn1 | 25.2
* N#CSCC(=O)c1ccc(Cl)cc1 | -19.5

====

tested on: A498 renal; test: NCI-60 one-dose screen, 48 h; details: 10 µM unless noted
This is part of a sample that, as a whole, favours compounds with a hit. Of some 83,000 tested, about 20% had one in any assay. Calls of active or inactive are those of the source. The calls were made as follows: active = growth percent below 10; inactive = the rest.
Classes used: True = active, False = inactive

• N#Cc1ccc([N+](=O)[O-])o1 = False
• O=Nc1ccccc1N=O = False
• CN(C)c1ccc(/C=N/N=C(\C#N)[S][Sn]([Cl])([c]2ccccc2)[c]2ccccc2)cc1 = False
• CCOC(=O)/C=C/c1ccc([N+](=O)[O-])o1 = False
• CCN(CC)CCOc1ccc(-c2nc3cc(Cl)ccc3s2)cc1 = True
• O=C(Nc1cccc(Br)c1)Oc1ccc(Cl)c2cccnc12 = False
• Oc1c(Cl)c2ccccc2c2ccccc12 = False

====

tested on: K-562 leukemia; assay: NCI-60 one-dose screen, 48 h; conditions: 10 µM unless noted
Compounds without any hit were thinned out: in the full panel of roughly 83,000, 20% have a hit. Calls of active or inactive are those of the source. Rule for the calls: active = growth percent below 10; inactive = the rest.
Classes used: True = active, False = inactive

- N#CSCc1ccc(Cl)c(CSC#N)c1: False
- COc1ccc2nc3cc(Cl)ccc3c(NCCNc3c4ccc(Cl)cc4nc4ccc(OC)cc34)c2c1: True
- O=C(Nc1cccc(Br)c1)Oc1ccc(Cl)c2cccnc12: False
- Cn1c2ccccc2c2nnc(N/N=C/c3ccccn3)nc21: False
- CN=C(N)N/N=C(\C)c1ccc2c(c1)Cc1cc(/C(C)=N/NC(N)=NC)ccc1-2: True
- O=C1N[C@H]2[C@H](CS[C@H]2CCCCC(=O)N(CCP(c2ccccc2)c2ccccc2)CCP(c2ccccc2)c2ccccc2)N1: False
- O=C(/C=C\c1cc(Br)ccc1O)/C=C/c1cc(Br)ccc1O: True
- CC(=O)ON=C1C=CC(=C(C#N)c2ccccc2)C=C1: False
- Cc1c2ccccc2c(C)c2c1ccc1ccccc12: False
- COC(=O)c1nc(=S)[nH]c(C(=O)OC)c1C(=O)c1ccccn1: False
- CCC(CC)COC(=O)c1ccc(O)c(O)c1: False

====

test system: M14 melanoma; experiment: NCI-60 one-dose screen, 48 h; conditions: 10 µM unless noted
This is part of a sample that, as a whole, favours compounds with a hit. Of some 83,000 tested, about 20% had one in any assay. The source made the active and inactive calls. The calls were made as follows: active = growth percent below 10; inactive = the rest. Where a SMILES comes first, the peptide text is derived from it. The star is where a group is joined. Trt = c1ccc(C(c2ccccc2)(c2ccccc2)*)cc1; Cbz = O=C(OCc1ccccc1)*
Classes used: True = active, False = inactive

• CC(=O)ON=C1C=CC(=C(C#N)c2ccccc2)C=C1 = False
• NC(N)=N/N=C/c1ccc([N+](=O)[O-])o1 = False
• O=C1N[C@H]2[C@H](CS[C@H]2CCCCC(=O)N(CCP(c2ccccc2)c2ccccc2)CCP(c2ccccc2)c2ccccc2)N1 = False
• CCCCCCCCCCCCCCCCOP(=O)([O-])OCC[N+](C)(C)C = True
• C[N+](C)=c1ccc2nc3c(cc(NCCCNc4cc5oc6cc(=[N+](C)C)ccc-6nc5c5ccccc45)c4ccccc43)oc-2c1 = False
• CCN(CC)CCOc1ccc(-c2nc3cc(Cl)ccc3s2)cc1 = True
• Oc1c(Cl)c2ccccc2c2ccccc12 = False
• Cn1c2ccccc2c2nnc(N/N=C/c3ccccn3)nc21 = True
• N#Cc1ccc([N+](=O)[O-])o1 = False
• C1=C(c2ccccc2)C(c2ccc(OCCN3CCCCC3)cc2)Oc2ccccc21 (stereo not given) = True
• Cc1ccc2nc(-[n+]3cc4ccccc4cc3C)ccc2c1 = False
• O=C1C2=C(Nc3cc([N+](=O)[O-])ccc3N2)OC1c1c2ccccc2cc2ccccc12 (stereo not given) = False
• CCOC(=O)/C(=C\c1ccc(-c2ccccc2)cc1)C(C)=O = False
• O=[N+]([O-])c1ccc(N=Nc2ccc(O)cc2O)cc1 = False
• CCCCCCC(C)c1ccccc1O (stereo not given) (tested in a mixture with another compound) = False
• CC(C)(C)c1ccc(O)c(C2CCCCC2)c1 = False
• CCC(=O)Sc1ccccc1C(=O)Nc1ccc(Cl)cc1 = False
• C/C=C1\SC(=S)NC1=O = False
• O=C(/C=C/C=C/c1ccccc1)c1ccco1 = False
• Cc1cc(N)c2ccccc2[n+]1CCCCCCCCCC[n+]1c(C)cc(N)c2ccccc21 = True
• CCN1/C(=C\c2cc[n+](CC)c3ccccc23)C=Cc2ccccc21 = False
• Cn1c2c(c3ccccc31)CCN1C[C@@H]3CCCC[C@H]3C[C@@H]21 = True
• S=C(N/N=C/c1ccccn1)Nc1ccccn1 = True
• CNc1ccc2c(c1)c1ccccc1n2C = False
• Oc1c(Br)cc(Cl)cc1C(c1cc(Cl)cc(Br)c1O)C(Cl)(Cl)Cl = False
• CC(C)c1ccc2nc3ccc(C(=O)NCCN4CCN(c5ccccc5)CC4)cn3c(=O)c2c1 = False
• O=C(Nc1cccc(Br)c1)Oc1ccc(Cl)c2cccnc12 = True
• Nc1nc(N)c2c(ccc3c2ccn3Cc2cccc([N+](=O)[O-])c2)n1 = True
• N[C@H](C(=O)O)[C@@H]1CC(Cl)=NO1 = False
• Cc1ccnc(NC(c2ccccc2)c2ccc3cccnc3c2O)c1 (stereo not given) = False
• CC1(C)CC([P+](c2ccccc2)(c2ccccc2)c2ccccc2)=NN1 = False
• Cc1cc(C(C)(CC(C)C)c2ccc(O)c(C)c2)ccc1O = False
• C=CCOc1ccc(N=NC(C#N)C#N)cc1 = False
• CCOC(=O)/C=C/c1ccc([N+](=O)[O-])o1 = False
• COc1ccccc1/C=C\C(=O)c1ccccc1 = False
• O=C(Nc1ccc(F)cc1)ON=C1CCCCC1 = False
• O=[N+]([O-])c1ccc2c(N=Nc3ccc4ccccc4c3O)c(O)cc(S(=O)(=O)O)c2c1 = False
• Oc1c(Br)c(Br)c(O)c(Br)c1Br = False
• CCOC(=O)c1c(C)[nH]c(CO)c1C = False
• CCCCCCCCCCCCCCNCc1ccccc1 = False
• CC(=Nc1ccc(N(C)C)cc1)c1ccccc1 = False
• COC(=O)C(CSC(c1ccccc1)(c1ccccc1)c1ccccc1)NC(=O)C(CC(N)=O)NC(=O)OCc1ccccc1 (stereo not drawn) (Cbz-Asn-Cys(Trt)-OMe; configuration not given here) = True
• c1ccc2c(c1)Nc1cc3ccccc3cc1N2 = False
• COC(=O)[C@@]12OC[C@]34[C@H]([C@@H](O)[C@@H]1O)[C@@]1(C)[C@H](O)C(=O)C=C(C)[C@@H]1C[C@H]3OC(=O)C(OC(C)=O)[C@@H]24 (stereo not given in full) = True
